B1: LOXL2 (parent)
chain: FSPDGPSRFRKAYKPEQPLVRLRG

# Variants of: B1
# experiment.notes: protein stability index of a GFP-peptide fusion (GPS, HEK-293T) (PSI 1-6); higher = more stable;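 further: lentivirally expressed fusions sorted by FACS into six bins by GFP to DsRed ratio, PSI derived from sequencing read proportions per bin multiplied by bin number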
# test.conditions: c terminus: a fixed tail appended
Listed below: protein stability index values for each entry.
endpoint.name: protein stability index

[[record]]
mutation_id = "R23S"
reported = 1.82

[[record]]
mutation_id = "P3D"
reported = 2

[[record]]
mutation_id = "R23K"
reported = 1.53

[[record]]
mutation_id = "R10Y"
reported = 1.98

[[record]]
mutation_id = "G5P"
reported = 2.21

[[record]]
mutation_id = "F9T"
reported = 2.27

[[record]]
mutation_id = "R21T"
reported = 1.53

[[record]]
mutation_id = "G24N"
reported = 1.91

[[record]]
mutation_id = "R10P"
reported = 2.14

[[record]]
mutation_id = "R23W"
reported = 2.25

[[record]]
mutation_id = "S2W"
reported = 1.84

[[record]]
mutation_id = "V20C"
reported = 1.85

[[record]]
mutation_id = "L22N"
reported = 2.36

[[record]]
mutation_id = "V20K"
reported = 1.37

[[record]]
mutation_id = "Q17S"
reported = 2.25

[[record]]
mutation_id = "E16D"
reported = 2.65

[[record]]
mutation_id = "P15E"
reported = 1.43

[[record]]
mutation_id = "G5R"
reported = 1.74

[[record]]
mutation_id = "D4Y"
reported = 2.82

[[record]]
mutation_id = "Y13H"
reported = 1.81

[[record]]
mutation_id = "G5D"
reported = 1.62

[[record]]
mutation_id = "Q17N"
reported = 1.4

[[record]]
mutation_id = "P18Q"
reported = 2.17

[[record]]
mutation_id = "F1G"
reported = 3.2

[[record]]
mutation_id = "P6G"
reported = 1.54

[[record]]
mutation_id = "S2P"
reported = 1.97

[[record]]
mutation_id = "P3E"
reported = 1.97

[[record]]
mutation_id = "R23Y"
reported = 1.2

[[record]]
mutation_id = "G5S"
reported = 2.38

[[record]]
mutation_id = "D4A"
reported = 1.62

[[record]]
mutation_id = "R21A"
reported = 1.65

[[record]]
mutation_id = "L22E"
reported = 1.68

[[record]]
mutation_id = "S2D"
reported = 3.05

[[record]]
mutation_id = "K14E"
reported = 1.83

[[record]]
mutation_id = "G5Q"
reported = 2.33

[[record]]
mutation_id = "P18Y"
reported = 1.65

[[record]]
mutation_id = "K14A"
reported = 2.1

[[record]]
mutation_id = "V20A"
reported = 2.26

[[record]]
mutation_id = "K14H"
reported = 2.06

[[record]]
mutation_id = "A12S"
reported = 1.9

[[record]]
mutation_id = "Q17L"
reported = 2.03

[[record]]
mutation_id = "K11D"
reported = 1.28

[[record]]
mutation_id = "S7Q"
reported = 2.32

[[record]]
mutation_id = "Y13P"
reported = 2.55

[[record]]
mutation_id = "F1A"
reported = 2.9

[[record]]
mutation_id = "L19Y"
reported = 2.69


Values from the supplement of paper PMC10567573
